System: HBV viral load in AD38 cells
Experiment: Viral load production in AD38 cells, quantitative PCR of the core sequence in supernatant
Assay type: cell-based
Conditions: Hepatitis B virus, 144 h, 6 days incubation, Table 4, compounds of Group 2, read-out: AD38 Viral Load (%) (VL with cmpd/VL in DMSO control) at 10 μM
Experimental: Assay Measuring Activity of Compounds on Viral Production in and on Viability of AD38 Cells […] Viral load production was assayed by quantitative PCR of the core sequence. […] Viral load was quantitated against known standards by using ViiA™ 7 Software. […]
Task for the reader: assign each of the following compounds its reported activity at 10 µM.
Please reply with the bare figure in % and do not write the unit itself.

Query block: Return activity at 10 µM for the following compound: N#Cc1ccc(-c2ncc(CNC(=O)c3ccc4c(c3)NC(=O)[C@@H]3CCCCN3S4(=O)=O)s2)c(F)c1 (single isomer, unassigned) [C25-02-Isomer I]
Result block: 3

Query block: Return activity at 10 µM for the following compound: N#Cc1ccc(-c2ncc(CNC(=O)c3ccc4c(c3)NC(=O)C3CCCCN3S4(=O)=O)s2)c(F)c1 (stereo not shown)
Result block: 0.5

Query block: Return activity at 10 µM for the following compound: O=C1CC2CCCCN2c2ccc(C(=O)NCc3cnc(C(F)(F)F)s3)cc2N1 (stereo not shown)
Result block: 45.9

Query block: Return activity at 10 µM for the following compound: Cc1ncc(CNC(=O)c2ccc3c(c2)NC(=O)c2ccncc2S3)s1
Result block: 11.7

---

Task for the reader: assign each of the following compounds its reported AD38 Viability Normalized Result (cmpd/DMSO %) at 10 μM.
Tested on: AD38 cells
Test: Viability of AD38 cells, Promega CellTiter-Glo
Type: cell-based
Conditions: 6 days incubation, controls being 100%, Table 4, compounds of Group 2
Please reply with the bare figure in % and do not write the unit itself.

Query block: Return AD38 Viability Normalized Result (cmpd/DMSO %) at 10 μM for the following compound: O=C1NC2=C(CCN(C(=O)NCc3cnc(-n4cccn4)s3)C2)S(=O)(=O)c2ccccc21
Result block: 97

Query block: Return AD38 Viability Normalized Result (cmpd/DMSO %) at 10 μM for the following compound: N#Cc1ccc(-c2ncc(CNC(=O)c3ccc4c(c3)NC(=O)C3CCCCN3S4(=O)=O)s2)c(F)c1 (stereo not drawn)
Result block: 95

Query block: Return AD38 Viability Normalized Result (cmpd/DMSO %) at 10 μM for the following compound: N#Cc1ccc(-c2ncc(CNC(=O)c3ccc4c(c3)NC(=O)[C@H]3CCCCN3S4(=O)=O)s2)c(F)c1 (single isomer, unassigned) [C25-02-Isomer II]
Result block: 111

---

Tested on: AD38 cells
Assay: Viability of AD38 cells, Promega CellTiter-Glo
Assay type: cell-based
Conditions: 6 days incubation, controls being 100%, Table 4, compounds of Group 2
Task for the reader: assign each of the following molecules its reported AD38 Viability Normalized Result (cmpd/DMSO %) at 10 μM.
Please reply with the bare figure in % and do not write the unit itself.

Query block: Return AD38 Viability Normalized Result (cmpd/DMSO %) at 10 μM for the following molecule: O=C(NCc1cnc(-n2cccn2)s1)c1ccc2c(c1)NC(=O)C1CCCN1S2(=O)=O (stereo not drawn)
Result block: 104

Query block: Return AD38 Viability Normalized Result (cmpd/DMSO %) at 10 μM for the following molecule: N#Cc1ccc(-c2ncc(CNC(=O)c3ccc4c(c3)NC(=O)c3ccncc3S4(=O)=O)s2)c(F)c1
Result block: 96

Query block: Return AD38 Viability Normalized Result (cmpd/DMSO %) at 10 μM for the following molecule: CC1=C(C)S(=O)(=O)c2ccc(C(=O)NCc3cnc(-n4cccn4)s3)cc2NC1=O
Result block: 92

Query block: Return AD38 Viability Normalized Result (cmpd/DMSO %) at 10 μM for the following molecule: CC1=C(C)S(=O)(=O)c2ccc(C(=O)NCc3cnc(-c4ccc(C#N)cc4F)s3)cc2NC1=O
Result block: 95

Query block: Return AD38 Viability Normalized Result (cmpd/DMSO %) at 10 μM for the following molecule: Cc1ncc(CNC(=O)c2ccc3c(c2)NC(=O)c2ccncc2S3)s1
Result block: 98

Query block: Return AD38 Viability Normalized Result (cmpd/DMSO %) at 10 μM for the following molecule: CC1=C(C)C(=O)Nc2cc(C(=O)NCc3cnc(-c4ccc(C#N)cc4F)s3)ccc2O1
Result block: 103

Query block: Return AD38 Viability Normalized Result (cmpd/DMSO %) at 10 μM for the following molecule: O=C(NCc1cnc(-c2ccc(O)cc2)s1)c1ccc2c(c1)NC(=O)c1ccncc1S2
Result block: 102

Query block: Return AD38 Viability Normalized Result (cmpd/DMSO %) at 10 μM for the following molecule: Cc1c(C(=O)NCc2cnc(-n3cccn3)s2)ccc2c1NC(=O)c1ccncc1S2(=O)=O
Result block: 85

Query block: Return AD38 Viability Normalized Result (cmpd/DMSO %) at 10 μM for the following molecule: CN(C)CCCOc1ccc(-c2ncc(CNC(=O)c3ccc4c(c3)NC(=O)c3ccncc3S4(=O)=O)s2)cc1
Result block: 101

Query block: Return AD38 Viability Normalized Result (cmpd/DMSO %) at 10 μM for the following molecule: N#Cc1ccc(-c2ncc(CNC(=O)c3ccc4c(c3)NC(=O)C3CCCN3S4(=O)=O)s2)c(F)c1 (stereo not drawn)
Result block: 100

Query block: Return AD38 Viability Normalized Result (cmpd/DMSO %) at 10 μM for the following molecule: O=C1CC2CCCCN2c2ccc(C(=O)NCc3cnc(C(F)(F)F)s3)cc2N1 (stereo not drawn)
Result block: 39

Query block: Return AD38 Viability Normalized Result (cmpd/DMSO %) at 10 μM for the following molecule: Cc1c(C(=O)NCc2cnc(-c3ccc(C#N)cc3F)s2)ccc2c1NC(=O)c1ccncc1S2(=O)=O
Result block: 90

Query block: Return AD38 Viability Normalized Result (cmpd/DMSO %) at 10 μM for the following molecule: O=C(NCc1cnc(-n2cccn2)s1)c1ccc2c(c1)NC(=O)[C@H]1CCCCN1S2(=O)=O (single isomer, unassigned) [C25-04-Isomer II]
Result block: 99

Query block: Return AD38 Viability Normalized Result (cmpd/DMSO %) at 10 μM for the following molecule: CC1=C(C)S(=O)(=O)c2ccc(C(=O)NCc3cnc(-c4ccc(OCCCN(C)C)cc4)s3)cc2NC1=O
Result block: 90

Query block: Return AD38 Viability Normalized Result (cmpd/DMSO %) at 10 μM for the following molecule: Cc1c(C(=O)NCc2cnc(-c3ccc(OCCCN(C)C)cc3)s2)ccc2c1NC(=O)c1ccncc1S2(=O)=O
Result block: 92

---

System: AD38 cells
Assay: Viability of AD38 cells, Promega CellTiter-Glo
Format: cell-based
Details: 6 days incubation, controls being 100%, Table 4, compounds of Group 2
Task for the reader: assign each of the following compounds its reported AD38 Viability Normalized Result (cmpd/DMSO %) at 10 μM.
// return the numeric value with its unit appended

Query block: Return AD38 Viability Normalized Result (cmpd/DMSO %) at 10 μM for the following compound: O=C(NCc1cnc(-c2ccccc2)s1)c1ccc2c(c1)NC(=O)c1ccncc1S2 [Compound 578]
Result block: 100%

Query block: Return AD38 Viability Normalized Result (cmpd/DMSO %) at 10 μM for the following compound: O=C(NCc1cnc(-n2cccn2)s1)c1ccc2c(c1)NC(=O)c1ccncc1S2(=O)=O [Compound C46-02]
Result block: 102%

Query block: Return AD38 Viability Normalized Result (cmpd/DMSO %) at 10 μM for the following compound: O=C(NCc1cnc(-n2cccn2)s1)c1ccc2c(c1)NC(=O)C1CCCCN1S2(=O)=O (stereo not shown) [Compound C25-04]
Result block: 98%

Query block: Return AD38 Viability Normalized Result (cmpd/DMSO %) at 10 μM for the following compound: CC1=C(C)C(=O)Nc2cc(C(=O)NCc3cnc(C(F)(F)F)s3)ccc2O1 [Compound C1-01]
Result block: 106%

Query block: Return AD38 Viability Normalized Result (cmpd/DMSO %) at 10 μM for the following compound: O=C(NCc1cnc(C(F)(F)F)s1)c1ccc2c(c1)NC(=O)c1ccncc1S2(=O)=O [Compound 1020]
Result block: 97%

Query block: Return AD38 Viability Normalized Result (cmpd/DMSO %) at 10 μM for the following compound: N#Cc1ccc(-c2ncc(CNC(=O)c3ccc4c(c3)NC(=O)CC3CCCCN43)s2)c(F)c1 (stereo not shown) [Compound C21-02]
Result block: 15%

Query block: Return AD38 Viability Normalized Result (cmpd/DMSO %) at 10 μM for the following compound: O=C(NCc1cnc(-n2cccn2)s1)c1ccc2c(c1)NC(=O)[C@@H]1CCCCN1S2(=O)=O (single isomer, unassigned) [C25-04-Isomer I]
Result block: 104%

---

System: AD38 cells
Assay: Viability of AD38 cells, Promega CellTiter-Glo
Type: cell-based
Conditions: 6 days incubation, controls being 100%, Table 4, compounds of Group 2
readout: AD38 Viability Normalized Result (cmpd/DMSO %) at 10 μM
Please reply with the bare figure in % and do not write the unit itself.

Query block: Return AD38 Viability Normalized Result (cmpd/DMSO %) at 10 μM for the following compound: CC1=C(C)C(=O)Nc2cc(C(=O)NCc3cnc(C(F)(F)F)s3)ccc2S1
Result block: 97

Query block: Return AD38 Viability Normalized Result (cmpd/DMSO %) at 10 μM for the following compound: CC1=C(C)S(=O)(=O)c2ccc(C(=O)NCc3cnc(C(F)(F)F)s3)cc2NC1=O
Result block: 101

Query block: Return AD38 Viability Normalized Result (cmpd/DMSO %) at 10 μM for the following compound: CC1=C(C)C(=O)Nc2cc(C(=O)NCc3cnc(-c4ccc(C#N)cc4F)s3)ccc2S1
Result block: 99

Query block: Return AD38 Viability Normalized Result (cmpd/DMSO %) at 10 μM for the following compound: N#Cc1ccc(-c2ncc(CNC(=O)c3ccc4c(c3)NC(=O)[C@@H]3CCCCN3S4(=O)=O)s2)c(F)c1 (single isomer, unassigned) [C25-02-Isomer I]
Result block: 108
